Value source: PubChem BioAssay (NCI)

# TGI values compiled below
Tested on: NCI-H23 lung
Assay: NCI tumour cell line growth inhibition, 48 h

Sample answers from the record:
CCN(CC)C(c1ccc(N(C)C)cc1)C(c1ccc(N(C)C)cc1)N(CC)CC (configuration not stated) : > 73 µM
O=C(O)COCC(=O)N(CCOCCN(Cc1ccccc1)C(=O)COCC(=O)O)Cc1ccccc1 : > 100 µM
O=c1[nH]nc(-c2ccccc2)n1/N=C/c1ccc([N+](=O)[O-])cc1 : > 100 µM
Cc1c(C(=O)C/C(=N/NC(=O)C[N+](C)(C)C)C(=O)Nc2ccc(Cl)cc2)[n+](=O)c2ccccc2n1O : > 100 µM
[Cl-].[Rh+3].c1cnc2c(c1)ccc1cccnc12.c1cnc2c(c1)ccc1cccnc12.c1cnc2c(c1)ccc1cccnc12 : > 100 µM
CN(C)/N=C(/CC(O)(C(F)(F)F)C(F)(F)F)c1ccc([N+](=O)[O-])cc1 : > 100 µM
COC1(C)CP(=O)(OC(C)C)CC(C)=C1Cl (configuration not stated) : 32.4 µM
CC1(C)C2CCC(CN)(C2)C1N (configuration not stated) : > 100 µM
CCN(CC)CCn1nc(N)c2nc3ccccc3nc21 : > 100 µM
CCCC/C=C/C/C=C/CCCCCCCCC(=O)OCC1CCCN2CCCCC12 (configuration not stated) : > 100 µM

Qu. Given the compound O=S(=O)(O)C1=C2Sc3ccccc3N=C2c2ccccc2C1 , what is its reported TGI?
Ans. 31.1 µM

Qu. Same question, Cc1cc(-c2cnn3c(NCC4CC(C)(O)C4)cc(Oc4cccnc4)nc23)ccc1C(=O)NC1CC1 (configuration not stated) this time
Ans. > 100 µM

Qu. Also, COc1ccc2c(c1)C(=O)c1c-2n(CCCn2ccnc2)c(=O)c2cc([N+](=O)[O-])ccc12 please.
Ans. < 0.01 µM

Qu. Param item: Nc1nc(Cl)c(CO)c(NCC2(CO)CC(CCc3ccccc3)C2)n1 (configuration not stated)
Ans. 37.5 µM

Qu. And what about the compound CCN(CCO)C(=O)C1(c2ccccc2)CCCCC1 ?
Ans. > 10 µM

Qu. Continue with OCCCNc1nc(=S)[nH]c2[nH]ncc12
Ans. > 100 µM

Qu. Could you do the same for COc1nc(N=P(c2ccccc2)(c2ccccc2)c2ccccc2)cc(=O)[nH]1 , please?
Ans. > 100 µM

Qu. How about this compound: c1ccc(CCCCNCc2cc(CNCCCCc3ccccc3)cc(CNCCCCc3ccccc3)c2)cc1
Ans. 2.11 µM

Qu. Then COc1cc2ncn(-c3cc(OCc4cccs4)c(C(N)=O)s3)c2cc1OC ?
Ans. > 25 µM

Qu. Check O=C1c2[nH]c3ccc(Br)cc3c2CCN1Cc1ccc(Cl)cc1 too.
Ans. 32.3 µM

Qu. Another: COc1cc(C(=O)CBr)c(OC)cc1C
Ans. > 100 µM

Qu. Cool, now CC(SC(=S)N1CCOCC1)c1cc2oc(=O)n(C)c2cc1Cl (configuration not stated)
Ans. > 100 µM

====

A collection of compounds and their measured TGI
System: SW-620 colon
Assay: NCI tumour cell line growth inhibition, 48 h

CC(=O)N(C(C)=O)n1c(Cc2ccc(Cl)cc2)n[nH]c1=O : > 100 µM

Moving on to another compound below.
Qu. Please look up its TGI: CCCCC(=O)c1ccc2ccccc2c1O
Ans. > 100 µM
